- Test system: HOP-62
- Assay: NCI tumour cell line growth inhibition, 48 h
The source made the active and inactive calls. Cut-off read from the data, not from the text of the source: active = GI50 up to about 1.1 µM and inactive = higher.
Value type: GI50

Observe how each entry below is paired with its result.
INSERT INTO assay_data (compound, recorded_measurement) VALUES
  ('CCCC1N2CCCCC2[C@@H]2c3[nH]c4ccccc4c3CCN12 (stereo partly specified)', '> 100 µM (inactive)'),
  ('c1cc(-c2ccc(-c3ccc(-c4ccc(-c5ccncc5)o4)cc3)o2)ccn1', '22.1 µM (inactive)'),
  ('COc1ccc(N2C(=O)C3c4[nH]c5ccc(OCc6ccccc6)cc5c4C4CCC(c5ccccc5)CC4C3C2=O)cc1 (stereo unspecified)', '3.37 µM (inactive)'),
  ('CC1CN=C(N(C(=O)Nc2ccc(Cl)cc2)c2cccc(Cl)c2)S1 (stereo unspecified)', '> 100 µM (inactive)'),
  ('COC1OC(OC)C2C(c3c(C)cc(C)cc3C)=NOC12 (stereo unspecified)', '2.13 µM (inactive)');

Returns the measured GI50 for the input compound. Input: CC1(C)COC(c2cccnc2/C=N/O)=N1
> 100 µM (inactive)

Returns the measured GI50 for the input compound. Input: N#CCCc1nc2ccc(Br)cc2c(=O)n1CCO
> 100 µM (inactive)

Returns the measured GI50 for the input compound. Input: CC(=O)CC1CCC(=O)CCC(=O)OC(CC(C)=O)CCC(=O)CCC(=O)O1 (stereo unspecified)
> 100 µM (inactive)

Returns the measured GI50 for the input compound. Input: CNc1ncnc2c1cnn2COCC(O)CO (stereo unspecified)
> 100 µM (inactive)

Returns the measured GI50 for the input compound. Input: NCCNCC(O)CO (stereo unspecified)
> 100 µM (inactive)

Returns the measured GI50 for the input compound. Input: CC(C)(C)C(=O)O[C@@H]1COC2C(O)COC21 (stereo partly specified)
> 100 µM (inactive)

###

- Test system: OVCAR-4
- Assay: NCI tumour cell line growth inhibition, 48 h
The source made the active and inactive calls. Rule as the data show it: active = GI50 up to about 1.1 µM and inactive = higher.
Give one outcome, nothing more. List: Yes for active, No for inactive

See these solved cases before continuing.
INSERT INTO assay_data (molecule, discrete_label) VALUES
  ('NC1(C(=O)O)CCCC1C(=O)O (centres undefined)', 'No'),
  ('COc1ccc2c3c(c4cc(OC)c(OC)cc4c2c1)CN1CCC[C@H]1[C@@H]3O', 'Yes'),
  ('COc1ccc(-c2nc3cc(F)ccc3s2)cc1O', 'No'),
  ('N#CC1C2CCC3(CC2CCN1C(=O)c1ccccc1)OCCO3 (centres undefined)', 'No'),
  ('Cc1cc(CNC(=O)OCc2ccccc2)c(C)c2c1Oc1ccccc1O2', 'No'),
  ('Cc1ccc(/N=C2/SC(c3ccc(C)cc3)(c3ccc(C)cc3)c3ccccc32)cc1', 'No'),
  ('CC1=NN(c2cccc(Cl)c2)C2(C1=Cc1ccc(N(C)C)cc1)C(Cl)C(=O)N2c1nc2ccccc2s1 (centres undefined)', 'No'),
  ('BrCCCCCOc1ccc(-c2c3ccccc3c(-c3ccc(OCCCCCBr)cc3)c3ccccc23)cc1', 'No');

Now examine the next entry.
Entry O=C1C(c2ccccc2)=C(c2ccccc2)[C@H](c2ccccc2)[C@]1(Cc1nnn(-c2ccc([N+](=O)[O-])cc2)c1N1CCOCC1)c1ccccc1 : call = ?
No

###

The reader will find reported GI50 values listed item by item below.
- Test system: Hs-578T
- Assay: NCI tumour cell line growth inhibition, 48 h
Activity calls are given as the source filed them. Rule as the data show it: active = GI50 up to about 1.1 µM and inactive = higher.

Observe how each entry below is paired with its result.
INSERT INTO results (molecule, recorded_measurement) VALUES
  ('CC(=O)NC(c1nc2cc(C)c(C)cc2[nH]1)c1nc2cc(C)c(C)cc2[nH]1', '36.8 µM (inactive)'),
  ('O=C1c2c(F)c(F)c(F)c(F)c2SC2=NCCN12', '14.2 µM (inactive)'),
  ('C[n+]1c(-c2ccc(/C=N/Nc3ccnc(N/N=C/c4ccc(-c5cn6ccsc6[n+]5C)cc4)n3)cc2)cn2ccsc21', '69.5 µM (inactive)'),
  ('COc1ccc(N2C(=O)C3c4[nH]c5ccc(OCc6ccccc6)cc5c4C4CCC(c5ccccc5)CC4C3C2=O)cc1 (configuration not stated)', '5.42 µM (inactive)'),
  ('COc1ccc2nc3cc(Cl)ccc3c(NCCCCCC(=O)NC(COc3cnc4c(ccc5cccnc54)c3)COc3cnc4c(ccc5cccnc54)c3)c2c1', '50.8 µM (inactive)'),
  ('CSc1nc(NC2OC(COC(C)=O)C(OC(C)=O)C(OC(C)=O)C2OC(C)=O)c(/N=C\C=N/c2c(NC3OC(COC(C)=O)C(OC(C)=O)C(OC(C)=O)C3OC(C)=O)nc(SC)n(C)c2=O)c(=O)n1C (configuration not stated)', '26.1 µM (inactive)'),
  ('Cc1cc(N(CCC#N)CCC#N)ccc1C(/N=N\c1ccc(C(=O)O)cc1)=N\NC(=O)c1cc(Cl)ccc1O', '19.7 µM (inactive)'),
  ('COC(=O)CC1c2ccccc2N2C(=O)Cc3c([nH]c4ccccc34)C12 (configuration not stated)', '25.4 µM (inactive)');

Returns the measured GI50 for the input molecule. Input: C[C@H]1CC[C@@]2(OC1)O[C@H]1C[C@H]3[C@@H]4CC[C@@H]5C[C@@H](OC6OC(CO)C(O)C(O)C6OC6OC(CO)C(O)C(O)C6O)CC[C@]5(C)[C@H]4CC[C@]3(C)[C@H]1[C@@H]2C (some centres not stated)
2.44 µM (inactive)

Returns the measured GI50 for the input molecule. Input: CCOC(=O)CSc1nc(-c2ccc(Cl)cc2)c(C#N)c(=O)[nH]1
> 100 µM (inactive)

Returns the measured GI50 for the input molecule. Input: CCOC(=O)P(=O)(O)c1ccc(N(C)Cc2ccccc2)cc1
> 100 µM (inactive)

Returns the measured GI50 for the input molecule. Input: Cc1cc(C)nc(NS(=O)(=O)c2ccc(NNc3c4ccccc4nc4c(C(=O)Nc5ccc(S(=O)(=O)Nc6cc(C)on6)cc5)cccc34)cc2)n1
51.4 µM (inactive)
